All figures here come from PubChem BioAssay (NCI).

system: UACC-257 melanoma; assay: NCI-60 one-dose screen, 48 h; details: 10 µM unless noted
About 83,000 compounds went through this panel and 20% of them were active in at least one assay; those are over-represented in the sample as a whole. Activity calls are given as the source filed them. Rule for the calls: active = growth percent below 10; inactive = the rest.
Could you please pick one outcome from this set? Y (active), N (inactive)

Illustrative cases are given below, each with its answer.
compound: COc1ccc(Cc2cnc(NC(=O)c3sc4ccccc4c3Cl)s2)cc1
answerLabel: N
--
compound: CCn1c2ccc(O)cc2c2c(C)c3c[n+](C(C)C)ccc3c(C)c21
answerLabel: N
--
compound: CC(C)c1ccc(C(=O)Nc2sc3cc(O)ccc3c2C#N)cc1
answerLabel: N

Exercise: GET /call?item= C#CC#CC#CC#CC#CC#CC#CC#CCC1OCC(COC(=O)O[C@@H](C(=O)O[C@H]2C[C@@]3(O)[C@@H](OC(=O)c4ccccc4)[C@@H]4[C@]5(OC(C)=O)CO[C@@H]5C[C@H](O)[C@@]4(C)C(=O)[C@H](OC(C)=O)C(=C2C)C3(C)C)[C@@H](NC(=O)c2ccccc2)c2ccccc2)O1 (stereo partly drawn) returns the recorded outcome of this test.
Solution: N

Exercise: GET /call?item= COc1cc(C(=O)C(=O)c2cc(OC)c(O)c(OC)c2)cc(OC)c1O returns the recorded outcome of this test.
Solution: N

Exercise: GET /call?item= N#C/C(=C\c1ccc(Br)cc1)c1cc2ccccc2[nH]1 returns the recorded outcome of this test.
Solution: N
